Test system: Saccharomyces cerevisiae
Experiment: […] activity against Saccharomyces cerevisiae AY-10 transformed with pRS416-13 carrying ADP1 gene after 24 hrs by microdilution method
Type: functional
Conditions: AY-10, 24 h
Starred links: 1 amine or outer side, 2 acyl side, 3 side chain; linkers in the order of their positions; H or OH if unused. Positions of bridges follow the written chain, without caps; N, C: chain ends. Non-standard residues stand in square brackets, D forms with d. Residues, ends and D or L forms follow the SMILES beside them. *: point of attachment. Orn(4R-OH,5R-OH) = O=C([C@H](C[C@@H](O)[C@@H](O)N[*:3])N[*:1])[*:2]; hTyr(3S-OH,4S-OH) = N[C@H](C(=O)O)[C@H](O)[C@@H](O)c1ccc(O)cc1; Pro(3S-OH,4S-Me) = C[C@H]1CN[C@H](C(=O)O)[C@H]1O; Palmitoyl = CCCCCCCCCCCCCCCC(=O)*; Hyp = O=C(O)[C@@H]1C[C@@H](O)CN1
ENDPOINT: MIC

INSERT INTO results (compound, endpoint, reported) VALUES
  ('C[C@@H]1[C@H](O)[C@@H](C)/C=C/C=C/C=C/C=C/C=C/C=C/C=C/[C@H](O[C@@H]2O[C@H](C)[C@@H](O)[C@H](N)[C@@H]2O)C[C@@H]2O[C@](O)(C[C@@H](O)C[C@@H](O)[C@H](O)CC[C@@H](O)C[C@@H](O)CC(=O)O[C@H]1C)C[C@H](O)[C@H]2C(=O)O [AMPHOTERICIN B]', 'MIC', '0.125 µg/mL'),
  ('CCCCCCCCCCCCCCCC(=O)N[C@H]1C[C@@H](O)[C@@H](O)NC(=O)[C@@H]2[C@@H](O)[C@@H](C)CN2C(=O)[C@H]([C@@H](C)O)NC(=O)[C@H]([C@H](O)[C@@H](O)c2ccc(O)cc2)NC(=O)[C@@H]2C[C@@H](O)CN2C(=O)[C@H]([C@@H](C)O)NC1=O [ACULEACIN A] (Palmitoyl-[Orn(4R-OH,5R-OH)]T[Hyp][hTyr(3S-OH,4S-OH)]T[Pro(3S-OH,4S-Me)]; lactam 1-C)', 'MIC', '0.25 µg/mL'),
  ('CCc1c(C)c(C#N)c2nc3ccccc3n2c1NCCN(CC)CC', 'MIC', '4 µg/mL'),
  ('Nc1nc(=O)[nH]cc1F [FLUCYTOSINE]', 'MIC', '4 µg/mL');

====

Test system: Saccharomyces cerevisiae
Test: […] activity against Saccharomyces cerevisiae AY-10 transformed with empty vector pRS416 after 24 hrs by microdilution method
Type: functional
Settings: AY-10, 24 h
Starred links: 1 amine or outer side, 2 acyl side, 3 side chain; linkers in the order of their positions; H or OH if unused. Positions of bridges follow the written chain, without caps; N, C: chain ends. Non-standard residues stand in square brackets, D forms with d. Residues, ends and D or L forms follow the SMILES beside them. *: point of attachment. Orn(4R-OH,5R-OH) = O=C([C@H](C[C@@H](O)[C@@H](O)N[*:3])N[*:1])[*:2]; hTyr(3S-OH,4S-OH) = N[C@H](C(=O)O)[C@H](O)[C@@H](O)c1ccc(O)cc1; Pro(3S-OH,4S-Me) = C[C@H]1CN[C@H](C(=O)O)[C@H]1O; Palmitoyl = CCCCCCCCCCCCCCCC(=O)*; Hyp = O=C(O)[C@@H]1C[C@@H](O)CN1
ENDPOINT: MIC (µg/mL)

INSERT INTO assay_data (compound, endpoint_unit, reported) VALUES
  ('C[C@@H]1[C@H](O)[C@@H](C)/C=C/C=C/C=C/C=C/C=C/C=C/C=C/[C@H](O[C@@H]2O[C@H](C)[C@@H](O)[C@H](N)[C@@H]2O)C[C@@H]2O[C@](O)(C[C@@H](O)C[C@@H](O)[C@H](O)CC[C@@H](O)C[C@@H](O)CC(=O)O[C@H]1C)C[C@H](O)[C@H]2C(=O)O [AMPHOTERICIN B]', 'µg/mL', 0.25),
  ('CCc1c(C)c(C#N)c2nc3ccccc3n2c1NCCN(CC)CC', 'µg/mL', 2),
  ('CCCCCCCCCCCCCCCC(=O)N[C@H]1C[C@@H](O)[C@@H](O)NC(=O)[C@@H]2[C@@H](O)[C@@H](C)CN2C(=O)[C@H]([C@@H](C)O)NC(=O)[C@H]([C@H](O)[C@@H](O)c2ccc(O)cc2)NC(=O)[C@@H]2C[C@@H](O)CN2C(=O)[C@H]([C@@H](C)O)NC1=O [ACULEACIN A] (Palmitoyl-[Orn(4R-OH,5R-OH)]T[Hyp][hTyr(3S-OH,4S-OH)]T[Pro(3S-OH,4S-Me)]; lactam 1-C)', 'µg/mL', 0.5),
  ('Nc1nc(=O)[nH]cc1F [FLUCYTOSINE]', 'µg/mL', 2);
